The entries below are paired with their reported TGI.
- System: HL-60(TB) leukemia
- EXPERIMENTAL PROTOCOL: NCI tumour cell line growth inhibition, 48 h
QUANTITY: TGI

INSERT INTO measurements (compound, obs_value) VALUES
  ('O/N=C/C1c2ccccc2-c2ccccc21', '93.7 µM'),
  ('O=c1[nH]ncc(Br)c1Br', '4.27 µM'),
  ('COC(=O)Cc1c([C@H]2[C@H](CC(=O)OC)c3ccccc3N2C(C)=O)[nH]c2ccccc12', '> 100 µM'),
  ('Cc1cn([C@@H]2C[C@H]2CO)c(=O)[nH]c1=O', '> 100 µM'),
  ('C[C@@H]1OC(O)[C@@H](F)[C@H](O)[C@@H]1O (stereo partly specified)', '> 100 µM'),
  ('Cc1nc(C)c(Cc2ccccc2)o1', '> 100 µM'),
  ('Cc1cccc(C)c1NC(=O)C(=O)C1C(=O)NC(=O)NC1=O', '> 100 µM'),
  ('C=C1C(=O)O[C@H]2[C@H]1CC/C(COC(=O)c1ccc3ccccc3c1)=C\CC[C@@]1(C)O[C@@H]21', '3.83 µM'),
  ('Cc1cc2[nH]c3c(C#N)c4c(c(=O)n3c2cc1C)CCCC4', '> 100 µM'),
  ('C=C1C(=O)O[C@@]23C1CC[C@@H](C)C2CC[C@@]1(C)OC31 (stereo partly specified)', '10.6 µM'),
  ('FC(F)(F)c1cccc(Nc2nccc(-c3cnn4nc(-c5ccccc5)ccc34)n2)c1', '> 25 µM');

----------
- Test system: HL-60(TB) leukemia
- EXPERIMENTAL PROTOCOL: NCI tumour cell line growth inhibition, 48 h
Label Y when TGI is at or above 5 µM; otherwise label N.

INSERT INTO measurements (compound, discrete_label) VALUES
  ('CC(=O)OC[C@]1(C)C=C2C(=O)[C@](C)(O)C3(CC3)C(C)=C2[C@H]1O', 'N'),
  ('COC(=O)C1CC2(c3ccccc3)C(=O)c3ccccc3N2O1 (stereo not given)', 'Y'),
  ('COc1cc(CN2CCCCC2)cc2cc(C(=O)O)c(=O)oc12', 'Y'),
  ('c1ccc2c3c(c(N4CCOCC4)nc2c1)CCCC3', 'Y'),
  ('CCC[CH2][Sn]1([CH2]CCC)[O]Cc2nc(C)ccc2[O]1', 'N'),
  ('Oc1ccc2ccccc2c1N=Nc1nccs1', 'Y'),
  ('CC[CH2][Sn]([CH2]CC)([O]C(=O)c1cccnc1SC)[O][Sn]([CH2]CC)([CH2]CC)[O]C(=O)c1cccnc1SC', 'N'),
  ('CSc1nc2c(c(=O)n1C)N=C(c1ccccc1)[C@H](C(CC(=O)c1ccccc1)c1ccccc1)C(c1ccccc1)N2 (stereo not given in full)', 'Y'),
  ('O=C1CCCCN1CCCCC#Cc1ccccc1C#Cc1ccc([N+](=O)[O-])cc1', 'Y'),
  ('CN1C(=O)C2(Cc3cn(C45CC67SSC(CO)(C(=O)N6C4Nc4ccccc45)N(C)C7=O)c4ccccc34)SSC1(CO)C(=O)N2C (stereo not given)', 'Y');

----------
Measured GI50 values are reported for all entries that follow.
- System: HS 578T breast
- EXPERIMENTAL PROTOCOL: NCI tumour cell line growth inhibition, 48 h
QUANTITY: GI50

INSERT INTO measurements (compound, system, obs_value) VALUES
  ('CC(C)(C)OC(=O)N1CCc2c(sc3ncnc(N/N=C/c4cccc5ccccc45)c23)C1', 'HS 578T breast', '2.4 µM'),
  ('Nc1nc(Cl)c2ncn(Cc3ccc(C45CC6CC(CC(C6)C4)C5)c(O)c3)c2n1', 'HS 578T breast', '2.29 µM'),
  ('O=C1CCCCN1CCCCC#Cc1ccccc1C#Cc1ccc([N+](=O)[O-])cc1', 'HS 578T breast', '5.05 µM'),
  ('NC(=O)c1ccc(I)c(N)c1', 'HS 578T breast', '> 100 µM'),
  ('C=C1C(=O)O[C@H]2[C@H]1CC/C(COC(=O)c1ccc3ccccc3c1)=C\CC[C@@]1(C)O[C@@H]21', 'HS 578T breast', '1.53 µM'),
  ('COc1cc([N+](=O)[O-])cc2c3c(n(C)c12)[C@@]1(C)CCC2c4ccc(OCc5ccccc5)cc4CCC2C1C3 (stereo partly specified)', 'HS 578T breast', '> 100 µM'),
  ('O=c1[nH]ncc(Br)c1Br', 'HS 578T breast', '2.23 µM'),
  ('CN1CCN(C(=O)OCc2nc3c(N4CCOCC4)nc(Cl)nc3n2C)CC1', 'HS 578T breast', '1.64 µM'),
  ('Oc1ccc(NCc2nc3ccccc3[nH]2)cc1', 'HS 578T breast', '15 µM'),
  ('Cn1c2ccccc2c2c(-c3ccccc3)[n+]3ccncc3nc21', 'HS 578T breast', '87.5 µM'),
  ('N#Cc1ccc(O)c(C2=NCC(c3cccc(Oc4ccccc4)c3)O2)c1 (stereo unspecified)', 'HS 578T breast', '3.03 µM'),
  ('Oc1ccc2ccccc2c1N=Nc1nccs1', 'HS 578T breast', '4.55 µM'),
  ('CC/C(=C(/c1ccc(O)cc1)c1ccc(OCCNC)cc1)c1ccccc1', 'HS 578T breast', '1.87 µM'),
  ('Nc1cc(N)c2nc(-c3ccccc3)c(Nc3ccc(Cl)c(Cl)c3)nc2c1', 'HS 578T breast', '18.9 µM'),
  ('CS(=O)(=O)c1ccc([C@H]2O[C@@H](CO)C[C@]2(O)c2ccc(S(C)(=O)=O)cc2)cc1', 'HS 578T breast', '> 100 µM'),
  ('N#CSc1c[nH]c2cccc(/C=C/C(=O)/C=C(/C=C/c3cccc4[nH]cc(SC#N)c34)OB(F)F)c12', 'HS 578T breast', '2.17 µM');

----------
- Tested on: M14 melanoma
- EXPERIMENTAL PROTOCOL: NCI tumour cell line growth inhibition, 48 h
Below is a list of entries, each paired with its recorded TGI value.
QUANTITY: TGI

INSERT INTO assay_data (compound, obs_value) VALUES
  ('NC(=O)c1cc2ccccc2o/c1=N/O', '> 100 µM'),
  ('O=C1C2c3[nH]c4ccccc4c3C3CCCCCCC3C2C(=O)N1c1ccccc1 (stereo not given)', '42.5 µM'),
  ('NC(=O)c1ccc(I)c(N)c1', '> 100 µM'),
  ('CCOC(=O)C(NC(=O)CC(C)C)(N1CCN(c2cc3c(cc2F)c(=O)c(C(=O)O)cn3C2CC2)CC1)C(F)(F)F (stereo not given)', '47.5 µM'),
  ('Cc1cn(C(C)OCCN2C(=O)c3ccccc3C2=O)c(=O)[nH]c1=O (stereo not given)', '> 100 µM'),
  ('COC(=O)c1ccc(C=Nc2ccc(S(N)(=O)=O)cc2)cc1', '> 100 µM'),
  ('O=C1NC2OC(CO)C(O)C(O1)C2O (stereo not given)', '> 100 µM'),
  ('O=c1c(-c2ccc(Cl)cc2)nnc2n(Cc3ccccc3)c3ccccc3n12', '> 100 µM'),
  ('C=C1C(=O)O[C@H]2[C@H]1CC/C(Cn1cc(-c3ccc(OC)cc3)nn1)=C\CC[C@@]1(C)O[C@@H]21', '3.09 µM'),
  ('Brc1ccc2c(-c3csc(-c4c[nH]c5ccc(Br)cc45)n3)c[nH]c2c1', '13.3 µM');

----------
- Test system: HCC-2998 colon
- EXPERIMENTAL PROTOCOL: NCI tumour cell line growth inhibition, 48 h
# reported GI50; entries follow
QUANTITY: GI50

INSERT INTO results (compound, obs_value) VALUES
  ('COc1ccc(/C(COc2c(-c3ccccc3)oc3ccccc3c2=O)=N\O)cc1', '8420 nM'),
  ('COc1cc(C2=C(c3ccccc3)COC2=O)cc(OC)c1OC', '1270 nM'),
  ('CC1(C)OC2[C@@H](CNC(=O)NC(=O)NC(=O)CI)O[C@@H](n3cnc4c(NC(=O)Nc5ccccc5)ncnc43)[C@H]2O1 (stereo not given in full)', '9290 nM'),
  ('CCN(CC)c1ccc(/C=C/c2ccc3cc(C)ccc3[n+]2CC)cc1', '197 nM'),
  ('CC/C(=C(/c1ccc(O)cc1)c1ccc(OCCNC)cc1)c1ccccc1', '1900 nM'),
  ('CCCn1cnc2c(SCc3ccccc3Cl)nc(N)nc21', '17800 nM'),
  ('CC[CH2][Sn]([CH2]CC)([O]C(=O)c1cccnc1SC)[O][Sn]([CH2]CC)([CH2]CC)[O]C(=O)c1cccnc1SC', '642 nM'),
  ('N#Cc1ccc(O)c(C2=NCC(c3cccc(Oc4ccccc4)c3)O2)c1 (stereo not given)', '881 nM'),
  ('CCOC(=O)[C]1([Bi]([CH3])[CH3])N=NC(C(=O)OC)=C1C(=O)OC (stereo not given)', '16400 nM'),
  ('O=c1[nH]ncc(Br)c1Br', '1890 nM');
